Hey, just so you know, these numbers are from patent US4426371A.

Record form. Attribute: LD50 (Rat) upon i.v. Injection. Fill in for each entry.
system: Rat; assay: Compatibility: LD50 (Rat) upon i.v. injection; assay type: in vivo; details: rate 2 ml/min, aqueous solution 300 mg I/ml
Response body: numeric value in g Iodine/kg Body Weight, unit text excluded.

Qu. For the molecule C[C@H](O)C(=O)Nc1c(I)c(C(=O)NC(CO)CO)c(I)c(C(=O)NC(CO)CO)c1I , what LD50 (Rat) upon i.v. Injection is on record?
Ans. 12

Qu. // query LD50 (Rat) upon i.v. Injection value for entry CN(CC(O)CO)C(=O)c1c(I)c(NC(=O)C(=O)Nc2c(I)c(C(=O)N(C)CC(O)CO)c(I)c(C(=O)N(C)CC(O)CO)c2I)c(I)c(C(=O)N(C)CC(O)CO)c1I (stereo not shown)
Ans. 13

Qu. Would you kindly share the measured LD50 (Rat) upon i.v. Injection for CC(=O)Nc1c(I)c(C(=O)N[C@H]2C(O)O[C@H](CO)[C@@H](O)[C@@H]2O)c(I)c(N(C)C(C)=O)c1I (stereo partly shown) [Metrizamide] ?
Ans. 12
